- assaySummary: Therapeutic index, ratio of HC50 for human erythrocytes to MIC for Escherichia coli ATCC 25922
- Format: toxicity
- assayContext: read-out: TI
metric: selectivity ratio

INSERT INTO assay_data (smilesrecord, metric, rel, assayvalue) VALUES
  ('CCCCCCCCCCCCCCCCCCNC(=O)CN(NC(=O)CCCCCCCCCCC)C(=O)CN.Cl', 'selectivity ratio', '<', 0.7),
  ('CCCCCCCCCCCCCCCCCCNC(=O)CN(NC(=O)CCCCCCC)C(=O)CN.Cl', 'selectivity ratio', '<', 1),
  ('CCCCCCCCNC(=O)CN(NC(=O)OCc1ccccc1)C(=O)CN.Cl', 'selectivity ratio', '=', 3),
  ('CCCCCCCCNC(=O)CN(NC(=O)C(C)(C)C)C(=O)CN.Cl', 'selectivity ratio', '=', 3),
  ('CCCCCCCCCCCCNC(=O)CN(NC(=O)C(C)(C)C)C(=O)CN.Cl', 'selectivity ratio', '=', 49),
  ('CCCCCCCCCCCCCCCCCC(=O)NN(CC(=O)NCCC)C(=O)CN.Cl', 'selectivity ratio', '=', 0.5),
  ('CCCCCCCC(=O)NN(CC(=O)NCCC)C(=O)CN.Cl', 'selectivity ratio', '=', 0.4),
  ('CCCCCCCCCCCCNC(=O)CN(NC(=O)OCc1ccccc1)C(=O)CN.Cl', 'selectivity ratio', '=', 2.7),
  ('CCCCCCCCNC(=O)CN(NC(=O)c1ccccc1)C(=O)CN.Cl', 'selectivity ratio', '=', 2.9),
  ('CCCCCCCCCCCCNC(=O)CN(NC(=O)CCCCCCCCCCC)C(=O)CN.Cl', 'selectivity ratio', '<', 3.4),
  ('CCCCCCCCCCCCNC(=O)CN(NC(C)=O)C(=O)CN.Cl', 'selectivity ratio', '=', 2);

----------
- assaySummary: Therapeutic index, ratio of HC50 for human erythrocytes to MIC for Staphylococcus aureus ATCC 29213
- Type: toxicity
- assayContext: read-out: TI
metric: selectivity ratio

INSERT INTO measurements (smilesrecord, metric, rel, assayvalue) VALUES
  ('CCCCCCCCCCCCCCCCCCNC(=O)CN(NC(=O)CCCCCCC)C(=O)CN.Cl', 'selectivity ratio', '<', 1),
  ('CCCCCCCCCCCCCCCCCC(=O)NN(CC(=O)NCCC)C(=O)CN.Cl', 'selectivity ratio', '=', 3.7),
  ('CCCCCCCCCCCCNC(=O)CN(NC(=O)C(C)(C)C)C(=O)CN.Cl', 'selectivity ratio', '=', 99),
  ('CCCCCCCCCCCCCCCCCCNC(=O)CN(NC(=O)OCc1ccccc1)C(=O)CN.Cl', 'selectivity ratio', '=', 0.5),
  ('CCCCCCCCCCCCNC(=O)CN(NC(=O)CCCCCCC)C(=O)CN.Cl', 'selectivity ratio', '=', 5.7),
  ('CCCNC(=O)CN(NC(C)=O)C(=O)CN.O=C(O)C(F)(F)F', 'selectivity ratio', '=', 2.6),
  ('CCCCCCCCNC(=O)CN(NC(=O)CCCCCCC)C(=O)CN.Cl', 'selectivity ratio', '=', 8.2),
  ('CCCCCCCCCCCCNC(=O)CN(NC(=O)CCCCCCCCCCC)C(=O)CN.Cl', 'selectivity ratio', '<', 3.4),
  ('CCCCCCCCCCCCCCCCCC(=O)NN(CC(=O)NCCCCCCCC)C(=O)CN.Cl', 'selectivity ratio', '=', 1.6),
  ('CCCCCCCCCCCCCCCCCCNC(=O)CN(NC(C)=O)C(=O)CN.Cl', 'selectivity ratio', '=', 0.9),
  ('CCCCCCCCNC(=O)CN(NC(=O)OCc1ccccc1)C(=O)CN.Cl', 'selectivity ratio', '=', 3),
  ('CCCCCCCCCCCCNC(=O)CN(NC(C)=O)C(=O)CN.Cl', 'selectivity ratio', '=', 2);
